# credit: patent US20150010546A1

target: T1, human HGF (R&D Systems, 294-HG/CF) (human, UniProt P14210 32-728); assay: SPR (Biacore T100), HGF amine-coupled to CM5 chip, periplasmic extract at one dilution
T1 construct: The entry begins at QRKRR, without signal peptide; Amine-coupled to the chip in SPR and biotinylated in AlphaScreen; also called rec hHGF (R&D systems)
T1 sequence (P14210 32-728 limits assumed): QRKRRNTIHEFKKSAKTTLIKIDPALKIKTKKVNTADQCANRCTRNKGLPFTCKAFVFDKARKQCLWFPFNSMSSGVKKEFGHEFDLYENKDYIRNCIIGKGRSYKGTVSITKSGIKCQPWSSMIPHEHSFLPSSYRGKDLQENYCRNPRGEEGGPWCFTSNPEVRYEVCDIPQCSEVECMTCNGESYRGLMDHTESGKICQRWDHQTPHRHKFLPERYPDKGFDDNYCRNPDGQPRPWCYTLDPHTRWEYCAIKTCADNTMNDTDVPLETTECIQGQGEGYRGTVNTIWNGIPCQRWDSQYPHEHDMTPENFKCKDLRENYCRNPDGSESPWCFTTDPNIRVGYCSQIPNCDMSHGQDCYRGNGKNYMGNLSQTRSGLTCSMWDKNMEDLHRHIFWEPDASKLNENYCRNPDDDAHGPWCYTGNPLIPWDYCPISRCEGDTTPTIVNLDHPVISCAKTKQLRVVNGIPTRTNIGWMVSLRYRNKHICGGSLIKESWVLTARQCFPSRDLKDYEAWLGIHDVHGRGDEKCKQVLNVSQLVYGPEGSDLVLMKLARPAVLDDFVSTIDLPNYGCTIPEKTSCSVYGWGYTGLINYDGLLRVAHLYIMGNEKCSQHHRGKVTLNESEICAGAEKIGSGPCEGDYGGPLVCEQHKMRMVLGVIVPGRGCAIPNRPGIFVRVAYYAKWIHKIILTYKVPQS
MEASUREMENT_LABEL: koff (s⁻¹)
Provide only the numeric value, understood in s⁻¹.

The cases that follow already have their koff on record.
BINDER	VALUE
6B6 (VHH, anti-HGF Nanobody clone, tested as periplasmic extract; not shown: c-myc and His6 tags) VHH: EVQLVESGGGLVQPGGSLRLSCAASGFTFDDYAMSWGRQAPGKGLEWVSAISWNGGSTYYAESMKGRFTVSRDNAKNTLYLQMNSLKSEDTAVYYCAKALDPLGVLAGTSGIYDYWGQGTQVTVSS	9.37e-06
1C7 (VHH, anti-HGF Nanobody clone, tested as periplasmic extract; not shown: c-myc and His6 tags) VHH: EVQLVESGGGLVQAGGSLRLSCAASGRTFSSYAMGWFRQAPGKEREFVAGISWSGGSTYYADSVKGRFTISRDNAKNTVYLRMNSLKPEDTAVYYCAADPVGRADLYEYDYWGQGTQVTVSS	0.00286
9G6 (VHH, anti-HGF Nanobody clone; not shown: c-myc and His6 tags) VHH: EVQLVESGGGLVQAGGSLRLSCAASGRTLSDYTMGWFRQAPGKEREFVARINTGGPITSYSDSVKGRFTISRDNAKNTVYLQMNSLKPEDTAVYNCAARLPTKMSPRDYSSYAYRGQGTQVTVSS	0.00107

Attention now shifts to the item below.
Query: Provide one value: measured koff of 5G9 (VHH, anti-HGF Nanobody clone, tested as periplasmic extract; not shown: c-myc and His6 tags) VHH: EVQLVESGGGLVQTGGSLRLSCAASGRTFSPYAAGWFRHAPGKEREFVTAITWSGGSTYYADSVKGRFTISRDNAKNTVYLQMNSLKPEDTAVYYCAASYRWGITHEFDYWGQGTQVTVSS
Response: 0.0008
